ASSAY NOTES: IUF_NPC2-5_cell_number_120hr: Cell Number Assessment at 120 hours in the Leibniz Research Institute for Environmental Medicine (IUF) Neural Progenitor Cell Migration and Differentiation Assay (NPC2-5) (AID 2284308);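 further: count of Hoechst-stained nuclei in migration zone around plated human neural progenitor spheres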
Experimental: IUF_NPC2-5 is a cell-based, multiplexed assay that uses hNPC, a human primary neural progenitor cells, with measurements taken at 72 or 120 hours after chemical dosing in a 96-well plate. […] The processes radial glia migration, neuronal and oligodendrocyte migration as well as neuronal differentiation, neuronal morphology and oligodendrocyte differentiation are studied using automated phase contrast imaging and automated fluorescence imaging in combination with high content image analysis. […]
Calls of active or inactive are those of the source. How the source made its calls: active means hit-call score of the fitted dose curve at least 0.9, where 1 is the maximum; inactive means score below 0.9.
API: response.call in 1 (active), -1 (inactive)

CC(C)(c1ccc(O)cc1)c1ccc(O)cc1 -1
Cc1nn(C)c(Oc2ccccc2)c1C=NOCc1ccc(C(=O)OC(C)(C)C)cc1 1
O=C(O)c1ccccc1 -1
S=C(S)NCCNC(=S)S.[Mn+2].[S-]C([S-])=NCCN=C([S-])[S-].[Zn+2] -1
CCN(CC)C(=O)c1cccc(C)c1 -1
S=C([S-])NCCNC(=S)[S-].[Mn+2] -1

Turning to the following compound.
INPUT: What call does the record list for CSC(=O)c1cccc2nnsc12 ?
OUTPUT: -1

---

ASSAY NOTES: CCTE_Shafer_MEA_dev_per_burst_spike_percent: CCTE's Neural Network Formation Assay for Percent of Spikes in a Burst, Shafer Lab (AID 2284032)
Calls of active or inactive are those of the source. The calls were made as follows: active = hit-call score of the fitted dose curve at least 0.9, where 1 is the maximum; inactive = score below 0.9.
API: response.call in active, inactive

Sample answers from the record:
MOLECULE	GROUP LABEL
OB(O)O	inactive
Oc1ccc(C(c2ccc(O)cc2)C(Cl)(Cl)Cl)cc1	active
Cc1nn(C)c(Oc2ccccc2)c1C=NOCc1ccc(C(=O)OC(C)(C)C)cc1	active
O=C(O)c1ccccc1	inactive
CSC(=O)c1cccc2nnsc12	inactive

INPUT: What call does the record list for COCCO ?
OUTPUT: inactive

INPUT: What call does the record list for CCCCC(CC)CN1C(=O)C2C3C=CC(C3)C2C1=O (stereo not given) ?
OUTPUT: inactive

INPUT: What call does the record list for CCCCOCCOCCOCc1cc2c(cc1CCC)OCO2 ?
OUTPUT: active

INPUT: What call does the record list for S=C([S-])NCCNC(=S)[S-].[Mn+2] ?
OUTPUT: inactive

INPUT: What call does the record list for S=C(S)NCCNC(=S)S.[Mn+2].[S-]C([S-])=NCCN=C([S-])[S-].[Zn+2] ?
OUTPUT: active

---

Read-out: Monokine induced gamma interferon (MIG), CXCL9 (gene 4283)
ASSAY NOTES: BSK_SAg_MIG: BioMAP Diversity Plus: SAg Assay for Monokine induced gamma interferon (MIG) Biomarker Activity (AID 2283092)
CONDITION: primary human HUVEC with PBMC; actives raise or lower the signal
Calls of active or inactive are those of the source. Rule for the calls: active = hit-call score of the fitted dose curve at least 0.9, where 1 is the maximum; inactive = score below 0.9.
API: response.call in active, inactive

Sample answers from the record:
COMPOUND	GROUP LABEL
CC1(C)C(C=C(Cl)Cl)C1C(=O)OCc1cccc(Oc2ccccc2)c1 (centres undefined)	inactive
CCCCCOC(=O)COc1cc(N2C(=O)C3=C(CCCC3)C2=O)c(F)cc1Cl	inactive

INPUT: What call does the record list for CCCOC(=O)c1ccc(C(=O)OCCC)nc1 ?
OUTPUT: inactive

INPUT: What call does the record list for Cc1nn(C)c(Oc2ccccc2)c1C=NOCc1ccc(C(=O)OC(C)(C)C)cc1 ?
OUTPUT: active

INPUT: What call does the record list for CC(=O)S[C@@H]1CC2=CC(=O)CC[C@]2(C)[C@H]2CC[C@@]3(C)[C@@H](CC[C@@]34CCC(=O)O4)[C@H]12 ?
OUTPUT: active

INPUT: What call does the record list for OB(O)O ?
OUTPUT: inactive

INPUT: What call does the record list for C=CCOC(Cn1ccnc1)c1ccc(Cl)cc1Cl (centres undefined) ?
OUTPUT: inactive

INPUT: What call does the record list for C[C@]12CC[C@@H]3c4ccc(O)cc4C[C@@H](CCCCCCCCCS(=O)CCCC(F)(F)C(F)(F)F)[C@H]3[C@@H]1CC[C@@H]2O (some centres undefined) ?
OUTPUT: inactive

INPUT: What call does the record list for CCCOC(=O)NCCCN(C)C ?
OUTPUT: inactive

INPUT: What call does the record list for CCN(CC)C(=O)c1cccc(C)c1 ?
OUTPUT: inactive

INPUT: What call does the record list for COC(=O)c1ccccc1C(=O)O ?
OUTPUT: inactive

INPUT: What call does the record list for CCCCOCCOCCOCc1cc2c(cc1CCC)OCO2 ?
OUTPUT: inactive

INPUT: What call does the record list for CCCCC(CC)CN1C(=O)C2C3C=CC(C3)C2C1=O (centres undefined) ?
OUTPUT: inactive

INPUT: What call does the record list for CC(=O)[C@H]1CC[C@H]2[C@@H]3CCC4=CC(=O)CC[C@]4(C)[C@H]3CC[C@]12C ?
OUTPUT: inactive

INPUT: What call does the record list for CSC(=O)c1cccc2nnsc12 ?
OUTPUT: inactive

INPUT: What call does the record list for CC(C)(C)[C@@H](O)[C@@H](Cc1ccc(Cl)cc1)n1cncn1 ?
OUTPUT: inactive
